# reported melting point; entries follow
- test_conditions: a range is the spread between reports

Some solved entries appear below for comparison.
>>> print(df.to_string())
                              compound  measured_quantity  observed_measurement
0                 COc1ccc2cc(OC)ccc2c1      melting point         150 to 153 °C
1  CCCCCCCCOc1ccc(C(=O)c2ccccc2)c(O)c1      melting point         48 to 48.5 °C
2                   N#CC(Br)(Br)C(N)=O      melting point                124 °C

Q) // lookup melting point for Clc1ccc(Cl)s1
A) -41 to -40.5 °C

Q) What about this compound? CC(=O)Nc1ccc(Cl)cc1F
A) 155 to 157 °C

Q) What about this compound? CNc1ccc(Cl)cc1C(=O)c1ccccc1
A) 94 to 96 °C

Q) What about this compound? COC(=O)c1ccccc1OC(C)=O
A) 51.5 to 52 °C

Q) What about this compound? O=C1CC(c2ccc(O)cc2)Oc2cc(O)cc(O)c21 (stereo not given)
A) 250 to 251 °C

Q) What about this compound? CN(C)c1ccc(N(C)C)cc1
A) 50 to 51 °C

Q) What about this compound? Oc1ccc(O)cc1
A) 170 to 175 °C

Q) What about this compound? Nc1nccs1
A) 90 to 93 °C

Q) What about this compound? COc1cc(CCC(C)=O)ccc1O
A) 40.5 to 41 °C

Q) What about this compound? O=Cc1ccc(CO)o1
A) 31.5 to 34 °C

Q) What about this compound? OC(c1ccccc1)c1ccc(Cl)cc1 (stereo not given)
A) 60 to 60.8 °C

Q) What about this compound? CC(=O)c1ccco1
A) 29 to 33 °C
